Below, each of the molecules is paired with its reported %Inh value.
# System: PHKG2
# Condition summary: concentration: 1 μM,replicates: in singlicate; n = 1;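 also: KINOMEscan kinase panel screen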
Field format: number, assumed %, no unit text.

Record excerpt, results attached:
>>> recorded_result("C[C@@H]1CCN(C(=O)CC#N)C[C@@H]1N(C)c1ncnc2[nH]ccc12")
13
>>> recorded_result("COc1ccc(C[C@@H](CN)NC(=O)c2cc(Br)c(-c3ccnc4[nH]ccc34)s2)cc1.Cl.Cl [GSK1389063]")
24
>>> recorded_result("Nc1nc(Nc2ccccc2)cc(-c2ccc3c(N)n[nH]c3c2)n1 [GSK2225749]")
0
>>> recorded_result("CCN(CC)CCCCNc1ncc2cc(-c3c(Cl)cccc3Cl)c(NC(=O)NC(C)(C)C)nc2n1")
0
>>> recorded_result("Cc1occc1-c1nc(N)c(OC[C@@H](N)Cc2c[nH]c3ccccc23)cc1-c1cc2c(C)n[nH]c2cn1 [GSK1660450]")
11
>>> recorded_result("Cc1ccc(-n2nc(C(C)(C)C)cc2NC(=O)Nc2ccc(OCCN3CCOCC3)c3ccccc23)cc1 [GW839464]")
8
>>> recorded_result("O=C(NCCCN1CCOC1=O)c1cnc(NCc2cc(Cl)ccc2Cl)nc1NC1CCCC1")
13
>>> recorded_result("Cl.Cl.NC[C@H](Cc1ccc(C(F)(F)F)cc1)NC(=O)c1cc(Br)c(-c2ccnc3[nH]ccc23)s1 [GSK1487252]")
0
>>> recorded_result("Cl.Oc1cc(-c2nc(-c3ccccc3)[nH]c2-c2ccncc2)ccc1Cl [SB-386023]")
0
>>> recorded_result("CCN(CC)CCOc1ccc(Nc2ncc3cc(-c4c(Cl)cccc4Cl)c(=O)n(C)c3n2)cc1 [SB-601273]")
30

# %Inh (molecule: Cc1cc2cn[nH]c2cc1-c1cccc2c(N)c(C(N)=O)nnc12 ) is 0

====

# System: TNK1
# Condition summary: concentration: 1 μM,replicates: in singlicate; n = 1
# if value of %Inh reaches 6%, tag 1 (yes); if it stays below, tag 0 (no)

Worked examples, 8 compounds total:
>>> class_name("C[C@H]1Oc2cc(cnc2N)-c2c(nn(C)c2C#N)CN(C)C(=O)c2ccc(F)cc21")
"1 (yes)"
>>> class_name("COc1ccc(C[C@@H](CN)NC(=O)c2cc(Br)c(-c3ccnc4[nH]ccc34)s2)cc1.Cl.Cl")
"0 (no)"
>>> class_name("CCn1c(-c2nonc2N)nc2c(C#CC(C)(C)O)nc(OCCN)cc21.Cl.Cl")
"0 (no)"
>>> class_name("CC(C)N1C(=O)Cc2cc(Nc3ncc(C(F)(F)F)c(NCc4cccc(S(C)(=O)=O)c4)n3)ccc21")
"1 (yes)"
>>> class_name("CCN(CC)CCCCNc1ncc2cc(-c3c(Cl)cccc3Cl)c(NC(=O)NC(C)(C)C)nc2n1")
"1 (yes)"
>>> class_name("CN(C)CCOc1ccc(-c2cc(-c3c[nH]nc3-c3ccccn3)ccn2)cc1")
"1 (yes)"
>>> class_name("C[C@@H](Oc1cc(-c2cnn(C3CCNCC3)c2)cnc1N)c1c(Cl)ccc(F)c1Cl")
"1 (yes)"
>>> class_name("Cc1ccc(-n2nc(C(C)(C)C)cc2NC(=O)Nc2ccc(OCCN3CCOCC3)c3ccccc23)cc1")
"1 (yes)"

Could you tell me if the measured %Inh of Cl.Cl.NC[C@H](Cc1ccc(C(F)(F)F)cc1)NC(=O)c1cc(Br)c(-c2ccnc3[nH]ccc23)s1 reaches 6% or more? 0 (no)

Could you tell me if the measured %Inh of C[C@@H]1CCN(C(=O)CC#N)C[C@@H]1N(C)c1ncnc2[nH]ccc12 reaches 6% or more? 1 (yes)

Could you tell me if the measured %Inh of Cl.Cl.Nc1nc(-c2ccc3c(N)n[nH]c3c2)cc(N2CCCC(NC(=O)c3ccccc3)C2)n1 (centres unmarked) reaches 6% or more? 1 (yes)

Could you tell me if the measured %Inh of Cc1n[nH]c2ccc(-c3cc(OC[C@@H](N)Cc4ccccc4)cnc3-c3ccoc3)cc12.O=C(O)C(F)(F)F.O=C(O)C(F)(F)F reaches 6% or more? 0 (no)

Could you tell me if the measured %Inh of CNC(=O)c1ccccc1Sc1ccc2c(/C=C/c3ccccn3)n[nH]c2c1 reaches 6% or more? 1 (yes)

Could you tell me if the measured %Inh of O=C(NCCNc1ccnc(NCc2ccc(F)cc2)n1)c1cc2ccccc2s1 reaches 6% or more? 0 (no)

Could you tell me if the measured %Inh of CCN(CC)CCOc1ccc(Nc2ncc3cc(-c4c(Cl)cccc4Cl)c(=O)n(C)c3n2)cc1 reaches 6% or more? 1 (yes)

Could you tell me if the measured %Inh of CN(C)CC(O)COc1ccc(Nc2nccc(-c3cnn4nc(N5CCOCC5)ccc34)n2)cc1 (centres unmarked) reaches 6% or more? 0 (no)
